Target: human orexin-2 receptor (Homo sapiens (Human))
Sequence (O43614 whole entry): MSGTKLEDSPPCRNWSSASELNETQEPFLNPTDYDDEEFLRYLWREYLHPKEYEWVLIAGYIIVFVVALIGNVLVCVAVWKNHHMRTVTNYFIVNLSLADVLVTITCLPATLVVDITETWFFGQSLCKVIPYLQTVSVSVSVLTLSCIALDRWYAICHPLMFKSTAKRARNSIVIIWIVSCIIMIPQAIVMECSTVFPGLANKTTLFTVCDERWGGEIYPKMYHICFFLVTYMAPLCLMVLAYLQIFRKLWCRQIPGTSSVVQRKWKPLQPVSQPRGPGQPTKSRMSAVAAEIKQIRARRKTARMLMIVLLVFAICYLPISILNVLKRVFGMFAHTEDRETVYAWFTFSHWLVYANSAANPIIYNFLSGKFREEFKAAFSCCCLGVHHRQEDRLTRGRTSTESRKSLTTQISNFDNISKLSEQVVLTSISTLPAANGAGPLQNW
Experiment: FLIPR Ca2+ flux assay, hOX2R
Settings: CHO cells expressing the human orexin-2 receptor; agonist 70 pM Ala-6,12 orexin-A
# Lookup of reported IC50 keyed by entry
Readout: IC50 (nM)

> print(dat)
                                 smiles.repr  readout  assay.result
 1  C[C@@H]1C[C@@H](Nc2cc(OCC(F)F)ccn2)CN1C(=O)c1ccccc1-n1ncnn1     IC50           367
 2  COc1cccnc1N[C@@H]1C[C@@H](C)N(C(=O)c2ccccc2-c2noc(C)n2)C1     IC50           500
 3  C[C@@H]1C[C@@H](Nc2cc(OCC(F)F)ccn2)CN1C(=O)c1ccsc1-n1nccn1     IC50           625
 4  COc1ccnc(N[C@@H]2C[C@@H](C)N(C(=O)c3ccccc3-n3nccn3)C2)c1C#N     IC50           167
 5  COc1cccnc1N[C@@H]1C[C@@H](C)N(C(=O)c2nccnc2-c2ccccn2)C1     IC50          2370
 6  Cc1c(C#N)ccnc1N[C@@H]1C[C@@H](C)N(C(=O)c2ccccc2-n2nccn2)C1     IC50          23.6
 7  COC(=O)c1c(OC)ccnc1N[C@@H]1C[C@@H](C)N(C(=O)c2ccccc2-n2nccn2)C1     IC50          29.7
 8  C[C@@H]1C[C@@H](Nc2cc(C(F)F)ccn2)CN1C(=O)c1ccccc1-n1nccn1     IC50          13.6
 9  C[C@@H]1C[C@@H](Nc2cc(C(F)(F)F)ccn2)CN1C(=O)c1ccccc1-n1nccn1     IC50          26.3
10  C[C@@H]1C[C@@H](N(C)c2cc(Br)ccn2)CN1C(=O)c1ccccc1-n1nccn1     IC50           136
11  CCOC(=O)c1c(OC)ccnc1N[C@@H]1C[C@@H](C)N(C(=O)c2ccccc2-n2nccn2)C1     IC50          31.1
12  C[C@@H]1C[C@@H](Nc2cc(F)ccn2)CN1C(=O)c1ccccc1-n1nccn1     IC50           119
13  C[C@@H]1C[C@@H](Nc2cc(C#N)ccn2)CN1C(=O)c1ccccc1-n1nccn1     IC50          22.9
14  CCOc1ccnc(N[C@@H]2C[C@@H](C)N(C(=O)c3ccccc3-n3nccn3)C2)c1     IC50          31.5
15  COc1c(C#N)ccnc1N[C@@H]1C[C@@H](C)N(C(=O)c2ccccc2-n2nccn2)C1     IC50          40.8
16  COc1ccnc(N[C@@H]2C[C@@H](C)N(C(=O)c3ccccc3C3(C#N)CC3)C2)c1     IC50          23.9
17  C[C@@H]1C[C@@H](Nc2cc(OCC(F)F)ccn2)CN1C(=O)c1cccc2c1CCC2     IC50          2000
18  COc1cccnc1N[C@@H]1C[C@@H](C)N(C(=O)c2ccccc2-n2nccn2)C1     IC50          36.1
19  CCOc1ccnc(N[C@@H]2C[C@@H](C)N(C(=O)c3ccccc3-n3nccn3)C2)c1C(=O)OC     IC50          66.2
20  C[C@@H]1C[C@@H](Nc2cc(Cl)ccn2)CN1C(=O)c1ccccc1-n1nccn1     IC50          23.1
21  C[C@@H]1C[C@@H](Nc2cc(C#N)ccn2)CN1C(=O)c1ccccc1-n1ncnn1     IC50           302
22  Cc1ccnc(N[C@@H]2C[C@@H](C)N(C(=O)c3ccccc3-n3nccn3)C2)c1     IC50          75.9
23  CC(C)Oc1ccnc(N[C@@H]2C[C@@H](C)N(C(=O)c3ccccc3-n3nccn3)C2)c1     IC50          39.8
24  C[C@@H]1C[C@@H](Nc2cc(OCC(F)F)ccn2)CN1C(=O)c1ccccc1C1(C#N)CC1     IC50          65.1
25  C[C@@H]1C[C@@H](Nc2cc(C#N)ccn2)CN1C(=O)c1ccccc1-c1ncccn1     IC50          31.1
26  C[C@@H]1C[C@@H](Nc2cc(C(F)F)ccn2)CN1C(=O)c1ccsc1-n1nccn1     IC50          67.8
27  Cc1c(C#N)ccnc1N(C)[C@@H]1C[C@@H](C)N(C(=O)c2ccccc2-n2nccn2)C1     IC50          3210
28  C[C@@H]1C[C@@H](Nc2ccc(F)cn2)CN1C(=O)c1ccccc1-n1nccn1     IC50           175
29  COc1cccnc1N[C@@H]1C[C@@H](C)N(C(=O)c2nccnc2-n2cccn2)C1     IC50          1500
30  COC(=O)c1c(C#N)ccnc1N[C@@H]1C[C@@H](C)N(C(=O)c2ccccc2-n2nccn2)C1     IC50          14.6
31  CCOc1ncccc1C(=O)N1C[C@H](Nc2cc(OCC(F)F)ccn2)C[C@H]1C     IC50           989
32  C[C@@H]1C[C@@H](Nc2cc(C(F)F)ccn2)CN1C(=O)c1cscc1-n1nccn1     IC50           102
33  C[C@@H]1C[C@@H](Nc2nccc3ccccc23)CN1C(=O)c1ccccc1-n1nccn1     IC50          15.3
